System name: T1, FLAG-tagged cynomolgus Ang2 (cynomolgus, UniProt O15123 19-496 (human entry), limits assumed)
T1 construct: N-terminally FLAG-tagged, conditioned medium of HEK293T cells; also called cAng2; FLAG-cAng2
T1 chain: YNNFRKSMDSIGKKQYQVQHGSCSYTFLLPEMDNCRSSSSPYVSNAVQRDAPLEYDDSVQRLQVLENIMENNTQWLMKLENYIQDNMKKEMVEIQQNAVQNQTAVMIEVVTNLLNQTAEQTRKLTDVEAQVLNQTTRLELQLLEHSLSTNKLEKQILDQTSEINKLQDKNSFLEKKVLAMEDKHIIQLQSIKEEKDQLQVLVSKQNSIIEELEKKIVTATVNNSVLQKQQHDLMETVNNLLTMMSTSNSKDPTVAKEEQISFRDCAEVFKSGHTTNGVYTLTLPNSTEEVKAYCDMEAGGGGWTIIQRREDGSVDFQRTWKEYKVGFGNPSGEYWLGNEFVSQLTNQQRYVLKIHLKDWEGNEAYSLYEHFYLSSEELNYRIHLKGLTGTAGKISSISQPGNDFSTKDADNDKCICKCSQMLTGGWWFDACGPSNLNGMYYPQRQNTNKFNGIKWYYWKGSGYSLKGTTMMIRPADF
Assay remarks: competition ELISA: FLAG-cAng2 binding to coated cTie2-Fc
Give measured IC50 for each item. Keep answers brief.
All answers are understood in nM, so give the number only.

[in] Field request: IC50 | item: VHH 00933 (VHH, not shown: small tags and cut ends, Cycle 3 variant of 28D10 on the 00908 backbone) VHH: EVQLVESGGGLVQPGGSLRLSCAASGITLDDYAIGWFRQAPGKEREGVSAIRDNGGSTYYADSVKGRFTISSDNSKNTVYLQMNSLRPEDTAVYYCAAVPAGRLRYGEQWYPIYEYDAWGQGTLVTVSS
[out] 0.071

[in] Field request: IC50 | item: VHH 00932 (VHH, not shown: small tags and cut ends, Cycle 3 variant of 28D10 on the 00908 backbone) VHH: EVQLVESGGGLVQPGGSLRLSCAVSGITLDDYAIGWFRQAPGKEREGVSSIRDNGGSTYYADSVKGRFTISSDNSKNTVYLQMNSLRPEDTAVYYCAAVPAGRLRYGEQWYPIYEYDAWGQGTLVTVSS
[out] 0.054

Hey, just so you know, these numbers are from patent US20230203146A1.
